So I've got a bunch of substances here, and I need their pEC50 values.
# tested.on: Glucagon receptor (Homo sapiens)
# Sequence (P47871 whole entry): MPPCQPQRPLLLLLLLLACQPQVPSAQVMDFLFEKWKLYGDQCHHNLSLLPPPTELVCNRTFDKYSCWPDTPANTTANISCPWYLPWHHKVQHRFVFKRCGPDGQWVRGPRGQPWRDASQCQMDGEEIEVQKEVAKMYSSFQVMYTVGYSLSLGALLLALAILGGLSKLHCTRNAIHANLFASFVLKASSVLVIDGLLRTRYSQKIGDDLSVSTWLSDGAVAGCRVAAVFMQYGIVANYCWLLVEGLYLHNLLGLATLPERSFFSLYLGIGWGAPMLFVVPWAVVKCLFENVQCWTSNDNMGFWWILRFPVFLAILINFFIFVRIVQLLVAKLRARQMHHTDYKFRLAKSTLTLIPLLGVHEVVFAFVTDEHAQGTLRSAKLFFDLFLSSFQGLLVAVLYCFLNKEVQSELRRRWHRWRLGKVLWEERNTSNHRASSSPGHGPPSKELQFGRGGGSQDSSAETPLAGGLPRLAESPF
# experimental.details: Agonist activity at human GCGR expressed in HEK293 cells assessed as cAMP level measured after 60 mins by HTRF based assay
# Type: functional, cell-based
One number for each entry, as −log10 of the molar value.

>>> print(df.to_string())
                                  substance  data_value
0       H-HSQGTFTSDMSKYLDSRRAQDFVDWLIKG-NH2        8.59
1      H-HSQGTFTSDMSSYLDSRRAQEFVDWLIKGR-NH2        8.46
2  H-HSQGTFTSDMSSYLDSRRAQDFVDWLMNTKRNRNNIA-NH2        9.07
3  H-HSQGTFTSDMSKYLDSRRAQDFVDWLKNGGPSSGAPPPS-NH2       10.28

Let us examine a further case.
Please give the measured pEC50 for this substance: H-HSQGTFTSDMSKYLDSRRAQDFVDWLIKGRNRNNIA-NH2
9.74
